Every entry's value here was drawn from patent US20230183352A1.

- TARGET_OR_SYSTEM: T1, Claudin 18.2 (CLDN18.2), expressed on CHOS-CLDN 18.2 / HEK293-CLDN 18.2 / HCC827-CLDN 18.2 cells (human, UniProt P56856-2 1-261)
- T1 construct: whole, on cells; The species is not repeated for the CHOS-CLDN 18.2 cells; also called claudin-18A2
- ASSAY_COMMENT: FACS, CHOS-CLDN18.2 cells, 0.020 µg/ml
READOUT_TYPE: FACS reading

BINDER	TEST_VALUE
QP192193 (antibody, human IgG1, V domains shown, Chimeric; also called 40F1; mouse-derived chimeric antibody QP192193) VH: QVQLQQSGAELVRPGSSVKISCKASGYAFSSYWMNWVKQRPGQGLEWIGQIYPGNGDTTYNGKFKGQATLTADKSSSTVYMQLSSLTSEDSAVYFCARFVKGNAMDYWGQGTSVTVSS VL: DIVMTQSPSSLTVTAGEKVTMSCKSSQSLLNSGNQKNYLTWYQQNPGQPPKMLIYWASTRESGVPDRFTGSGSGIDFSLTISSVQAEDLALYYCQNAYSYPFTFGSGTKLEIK	11400
